Reference for the values: patent US11066369B2

Subject of test: horseradish peroxidase (HRP) tagged delF508-CFTR (Homo sapiens, UniProt P13569, DEL508-508)
Construct: expressed in transfected cells
Sequence (P13569 with tags, fused parts or gaps DEL508-508): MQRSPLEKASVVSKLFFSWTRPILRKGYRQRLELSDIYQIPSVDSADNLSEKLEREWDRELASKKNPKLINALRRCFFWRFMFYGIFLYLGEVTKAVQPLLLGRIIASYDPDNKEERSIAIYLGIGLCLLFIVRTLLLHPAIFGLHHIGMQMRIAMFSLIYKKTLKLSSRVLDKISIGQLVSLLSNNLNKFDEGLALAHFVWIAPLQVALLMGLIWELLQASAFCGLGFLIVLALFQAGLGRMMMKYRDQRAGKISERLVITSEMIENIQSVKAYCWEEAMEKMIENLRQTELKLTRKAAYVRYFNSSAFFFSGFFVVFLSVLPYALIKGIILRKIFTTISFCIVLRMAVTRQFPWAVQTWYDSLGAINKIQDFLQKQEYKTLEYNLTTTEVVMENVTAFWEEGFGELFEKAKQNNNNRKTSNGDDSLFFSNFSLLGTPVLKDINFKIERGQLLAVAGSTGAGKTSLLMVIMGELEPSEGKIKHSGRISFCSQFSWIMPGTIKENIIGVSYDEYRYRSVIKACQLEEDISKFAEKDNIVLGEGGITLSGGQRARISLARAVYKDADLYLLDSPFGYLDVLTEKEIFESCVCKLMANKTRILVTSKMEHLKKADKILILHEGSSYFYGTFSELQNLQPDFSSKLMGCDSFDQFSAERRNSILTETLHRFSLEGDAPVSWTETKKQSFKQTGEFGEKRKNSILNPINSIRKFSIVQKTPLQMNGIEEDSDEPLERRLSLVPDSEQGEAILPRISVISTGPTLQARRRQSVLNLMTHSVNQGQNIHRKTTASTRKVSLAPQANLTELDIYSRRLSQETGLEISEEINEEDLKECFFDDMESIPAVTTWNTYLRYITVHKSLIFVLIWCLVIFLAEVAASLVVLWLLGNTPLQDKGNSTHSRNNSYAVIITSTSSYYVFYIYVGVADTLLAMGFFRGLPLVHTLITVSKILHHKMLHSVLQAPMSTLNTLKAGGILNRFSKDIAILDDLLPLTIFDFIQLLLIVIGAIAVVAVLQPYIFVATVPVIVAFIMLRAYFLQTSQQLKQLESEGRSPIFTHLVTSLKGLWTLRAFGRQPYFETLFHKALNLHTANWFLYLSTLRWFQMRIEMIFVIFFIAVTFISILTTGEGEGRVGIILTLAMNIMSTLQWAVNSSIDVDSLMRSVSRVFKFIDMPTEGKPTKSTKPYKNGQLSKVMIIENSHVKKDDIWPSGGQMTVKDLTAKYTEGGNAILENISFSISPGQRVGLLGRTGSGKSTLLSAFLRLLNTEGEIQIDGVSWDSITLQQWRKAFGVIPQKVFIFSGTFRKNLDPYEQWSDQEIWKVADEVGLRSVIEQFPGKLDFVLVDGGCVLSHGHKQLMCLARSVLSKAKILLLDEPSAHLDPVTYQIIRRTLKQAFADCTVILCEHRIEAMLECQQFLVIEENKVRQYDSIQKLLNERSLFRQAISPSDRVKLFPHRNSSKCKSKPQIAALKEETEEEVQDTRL
Experiment summary: Measurement of delF508-CFTR-HRP surface expression in CFBE41o- cells
Format: cell-based
Cond: delF508-CFTR-HRP surface expression, CFBE41o- cells; read-out: DelF508-CFTR-HRP EC50
Form field: EC50 (one value per entry).
I only need the number, in µM, no unit after it.

Observe how each entry below is paired with its result.
Smi | Property | Number
Cc1ccccc1-c1nc(NS(=O)(=O)c2cccc(N)n2)ccc1Cl | EC50 | 1.35
CC(C)c1ccccc1-c1nc(NS(=O)(=O)c2cccc(N3CCC[C@@H](C(=O)O)C3)n2)ccc1C(F)(F)F | EC50 | 1.21
Cc1ccccc1-c1nc(NS(=O)(=O)c2cccc(N[C@H]3C[C@H](C(=O)O)C3)n2)ccc1C(F)(F)F | EC50 | 3.69

Next item in the queue.
What value of measured EC50 is listed for Cc1ccc(C(F)(F)F)cc1-c1nc(NS(=O)(=O)c2cccc(N)n2)ccc1Cl ? 1.98

###

Subject of test: horseradish peroxidase (HRP) tagged delF508-CFTR (Homo sapiens, UniProt P13569, DEL508-508)
Construct: expressed in transfected cells
Experiment summary: Measurement of delF508-CFTR-HRP surface expression in CFBE41o- cells
Format: cell-based
Cond: delF508-CFTR-HRP surface expression, CFBE41o- cells; read-out: DelF508-CFTR-HRP EC50
Property: EC50 (nM)
I only need the number, in nM, no unit after it.

Molecule | Value unit | EC50
Cc1ccc(C#N)cc1-c1nc(NS(=O)(=O)c2cccc(N3CCNCC3)n2)ccc1C(F)(F)F | nM | 3270
Cc1ccccc1-c1nc(NS(=O)(=O)c2cccc(OC3CC(C(=O)O)C3)n2)ccc1C(F)(F)F (mixture of isomers) | nM | 1520
Cc1ccccc1-c1nc(NS(=O)(=O)c2cccc(N3CC4(C3)OCCC4N)n2)ccc1C(F)(F)F (stereo not shown) | nM | 3170

Next item in the queue.
What value of measured EC50 is listed for CCC1(C(=O)O)CCN(c2cccc(S(=O)(=O)Nc3ccc(Cl)c(-c4c(C)cccc4C)n3)n2)CC1 ? 1610

###

Subject of test: horseradish peroxidase (HRP) tagged delF508-CFTR (Homo sapiens, UniProt P13569, DEL508-508)
Construct: expressed in transfected cells
Experiment summary: Measurement of delF508-CFTR-HRP surface expression in CFBE41o- cells;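 as to DelF508-CFTR-HRP Amax %: percent efficacy relative to reference corrector lumacaftor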
Format: cell-based
Cond: delF508-CFTR-HRP surface expression, CFBE41o- cells; read-out: DelF508-CFTR-HRP Amax %
Counter-ions that a name gives are not always drawn.
Form field: Emax (one value per entry).

Observe how each entry below is paired with its result.
Compound | Property | Result
Cc1cccc(F)c1-c1nc(NS(=O)(=O)c2ccc(N)nc2)ccc1Cl [Example 60] | Emax | 253%
[2H]C([2H])([2H])c1ccccc1-c1nc(NS(=O)(=O)c2cccc(N)n2)ccc1Cl [Example 20] | Emax | 499%
Cc1ccc(F)cc1-c1nc(NS(=O)(=O)c2ccnc(N3CCNCC3)c2)ccc1C(F)(F)F [Example 326] | Emax | 103%

What value of measured Emax is listed for Cc1ccc(F)cc1-c1nc(NS(=O)(=O)c2cccc(N[C@@H]3COC[C@H]3O)n2)ccc1Cl [Example 127] ? 382%

What value of measured Emax is listed for CC(C)(C)OC(=O)N1CCN(c2cccc(S(=O)(=O)Nc3ccc(C(F)(F)F)c(-c4ccccc4C4CC4)n3)n2)CC1 [Example 147] ? 482%

What value of measured Emax is listed for Cc1c(F)cccc1-c1nc(NS(=O)(=O)c2cccc(N)n2)ccc1Cl [Example 12] ? 555%

What value of measured Emax is listed for Cc1c(-c2nc(NS(=O)(=O)c3cccc(N)n3)ccc2Cl)cccc1C(F)(F)F [Example 34] ? 400%

What value of measured Emax is listed for COc1ccc(Cl)c(-c2nc(NS(=O)(=O)c3cccc(N4CCNCC4)n3)ccc2Cl)c1 [Example 158, hydrochloride] ? 230%
